- Protocol details: Selectivity index, ratio of IC50 for African green monkey Vero cells to IC50 for chloroquine-sensitive Plasmodium falciparum D6
- Assay type: toxicity, cell-based
- Details: read-out: Ratio IC50
Measured property: selectivity ratio

The examples below pair each entry with its known result.
>>> measured_result("COc1ccc(Nc2ccnc(NCCNc3ccnc4cc(Cl)ccc34)n2)cc1")
"> 500"
>>> measured_result("Clc1ccc2c(NCCNc3nccc(Nc4ccc(Br)cc4)n3)ccnc2c1")
"> 541"
>>> measured_result("Fc1ccc(Nc2ccnc(NCCNc3ccnc4cc(Cl)ccc34)n2)cc1")
"> 3.32"

Now, please, on to the next compound.
Challenge: Query (compound): COc1cc(Nc2ccnc(NCCNc3ccnc4cc(Cl)ccc34)n2)cc(OC)c1 ; field requested: selectivity ratio
Response given: > 606

Provenance of the data: ChEMBL document CHEMBL3351898
